Test System: T1, human GPC3 (human, UniProt P51654 25-563)
T1 construct: range 25-563; soluble analyte; also called soluble human GPC3; glypican 3
T1 sequence (P51654 25-563 limits assumed): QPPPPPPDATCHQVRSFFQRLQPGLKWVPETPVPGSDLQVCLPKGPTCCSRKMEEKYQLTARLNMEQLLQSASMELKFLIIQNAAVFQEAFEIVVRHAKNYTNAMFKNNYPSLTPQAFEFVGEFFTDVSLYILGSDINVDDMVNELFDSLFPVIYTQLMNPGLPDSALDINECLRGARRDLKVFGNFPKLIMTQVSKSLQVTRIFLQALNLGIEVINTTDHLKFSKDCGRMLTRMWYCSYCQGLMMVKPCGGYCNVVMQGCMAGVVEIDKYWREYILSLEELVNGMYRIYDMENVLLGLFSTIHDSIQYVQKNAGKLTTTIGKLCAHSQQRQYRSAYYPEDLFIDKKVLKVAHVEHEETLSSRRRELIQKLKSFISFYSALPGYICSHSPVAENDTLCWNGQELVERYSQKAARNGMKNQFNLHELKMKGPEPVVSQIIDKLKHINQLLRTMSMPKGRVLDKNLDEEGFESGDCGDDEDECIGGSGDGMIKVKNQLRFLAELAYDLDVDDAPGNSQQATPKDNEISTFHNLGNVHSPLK
Assay Procedure: SPR
// returns 0 unless Kd is strictly below 3 nM, in which case 1

Is the reported Kd for H0610-G1dh/none-Hi-Kn010G3/TR01L008-k0 (antibody, V domains shown, one-arm) VH: QVQLVQSGAEVKKPGASVKVSCKASGYTFTDYEMHWIRQPPGQGLEWIGAIDGKTPDTAYSQKFKGRVTLTADKSTSTAYMELSSLTSEDTAVYYCTRFYSYTYWGQGTLVTVSS VL: DIVMTQSPLSLPVTPGEPASISCQASESLVHSNRNTYLHWYQQKPGQAPRLLIYKVSNRFRGVPDRFSGSGSGTDFTLKISRVEAEDVGVYYCGQGTQVPYTFGQGTKLEIK strictly below 3 nM? 0

Does this binder meet the criterion Kd < 3 nM? H0610-G1dh/none-Hi-Kn010G3/L0045-k0 (antibody, V domains shown, one-arm) VH: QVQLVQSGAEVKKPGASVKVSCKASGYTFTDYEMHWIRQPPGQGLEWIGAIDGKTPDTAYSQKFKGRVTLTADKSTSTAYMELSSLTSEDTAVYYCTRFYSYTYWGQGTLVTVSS VL: DIVMTQSPLSLPVTPGEPASISCRSSQSLVHQNRNTYLHWYQQKPGQAPRLLIYKVSNRFSGVPDRFSGSGSGTDFTLKISRVEAEDVGVYYCGQGTQVPYTFGQGTKLEIK 0

Answer whether the binder H0610-G1dh/none-Hi-Kn010G3/L0008-k0 (antibody, V domains shown, one-arm) VH: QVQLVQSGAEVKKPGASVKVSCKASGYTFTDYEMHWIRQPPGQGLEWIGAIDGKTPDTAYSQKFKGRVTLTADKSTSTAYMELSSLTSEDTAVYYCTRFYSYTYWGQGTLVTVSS VL: DIVMTQSPLSLPVTPGEPASISCRVSQSLVHSNRNTYLHWYQQKPGQAPRLLIYKVSNRFSGVPDRFSGSGSGTDFTLKISRVEAEDVGVYYCGQGTQVPYTFGQGTKLEIK has Kd strictly less than 3 nM 0

Is the reported Kd for H0610-G1dh/none-Hi-Kn010G3/L0143-k0 (antibody, V domains shown, one-arm) VH: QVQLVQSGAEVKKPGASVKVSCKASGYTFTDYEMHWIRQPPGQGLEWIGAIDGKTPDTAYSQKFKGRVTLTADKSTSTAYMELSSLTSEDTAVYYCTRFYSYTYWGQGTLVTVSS VL: DIVMTQSPLSLPVTPGEPASISCRSSQSLVHSNRNTYLHWYQQKPGQAPRLLIYKVSNRFPGVPDRFSGSGSGTDFTLKISRVEAEDVGVYYCGQGTQVPYTFGQGTKLEIK strictly below 3 nM? 1

Quick check: does H0610-G1dh/none-Hi-Kn010G3/L0249-k0 (antibody, V domains shown, one-arm) VH: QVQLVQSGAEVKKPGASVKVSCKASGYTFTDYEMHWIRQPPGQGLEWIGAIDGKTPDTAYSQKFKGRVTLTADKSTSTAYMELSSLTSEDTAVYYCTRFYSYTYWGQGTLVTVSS VL: DIVMTQSPLSLPVTPGEPASISCRPSQSPVHSNRNTYIQWYQQKPGQAPRLLIYKVSNRFSGVPDRFSGSGSGTDFTLKISRVEAEDVGVYYCSQGTQVPYTFGQGTKLEIK have Kd under 3 nM? 1

API: query returns whether the binder falls strictly under 3 nM in Kd. Query: GCH094-G1dh/none-Hi-Kn010G3/L0272-k0 (antibody, V domains shown, one-arm) VH: QVQLVQSGAEVKKPGASVTVSCKASGYTFTDYEMHWVRQAPGEGLEWMGAIDGETPDTAYSEKFKGRVTLTADKSTSTAYMELSSLTSEDTAVYYCTRFYSYTYWGQGTLVTVSS VL: DIVMTQSPLSLPVTPGEPASISCRSSQPLVHSNRQTYLHWYQQKPGQAPRLLIYKVSNRFSGVPDRFSGSGSGTDFTLKISRVEAEDVGVYYCGQGTQVPYTFGQGTKLEIK 1
